# systemName: Nuclear receptor subfamily 1 group I member 2 (Homo sapiens) (UniProt O75469)
# Sequence (O75469 whole entry, looked up): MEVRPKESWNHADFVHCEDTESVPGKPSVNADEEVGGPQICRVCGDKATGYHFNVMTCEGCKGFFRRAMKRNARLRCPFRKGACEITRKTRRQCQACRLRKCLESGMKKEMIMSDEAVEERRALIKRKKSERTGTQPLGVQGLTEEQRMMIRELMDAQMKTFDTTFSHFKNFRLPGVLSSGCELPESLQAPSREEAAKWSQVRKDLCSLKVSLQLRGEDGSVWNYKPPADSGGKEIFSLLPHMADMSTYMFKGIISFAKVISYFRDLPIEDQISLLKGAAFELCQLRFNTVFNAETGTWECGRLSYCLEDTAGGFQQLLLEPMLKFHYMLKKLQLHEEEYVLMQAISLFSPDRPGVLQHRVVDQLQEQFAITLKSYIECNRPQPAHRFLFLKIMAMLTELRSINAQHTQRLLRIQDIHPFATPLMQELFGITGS
# protocolDescription: Human pregnane X receptor (PXR) small molecule agonists, qHTS assay (AID 1346982); further: nearly all actives have a fitted effect of over 35% in size
# condition: PXR-Luc HepG2, CYP3A4 luciferase reporter, 24 h; series mostly up to 92.4 µM
Inconclusive results are not listed. Active and inactive are the calls of the source. The call rests on the fitted dose curve; in most records, active means well fitted activation curve with a large enough effect in the repeat runs; inconclusive means weak or mixed curves; inactive means no such curve, though single readings can be large or run the other way.
Could you please pick one outcome from this set? y (active), n (inactive)

Qu. What call does the record list for OC(CCCN1CCCCC1)(c1ccccc1)c1ccccc1 ?
Ans. n

Qu. Hello, I am checking results. What call was entered for CC(CCc1ccc2c(c1)OCO2)NN (stereo unspecified) ?
Ans. n

Qu. For this molecule, state the assay outcome: COC(=O)c1cc(Cl)ccc1NS(=O)(=O)C(F)(F)F
Ans. n

Qu. Field: outcome | Entry: CCCCCCCCCCCC[N+](C)(C)CCCS(=O)(=O)[O-]
Ans. n

Qu. Hello, I am checking results. What call was entered for CC(N)CN (stereo unspecified) ?
Ans. n
